Quick reference for TGI among some molecules
- Test system: MCF7 breast
- Method: NCI tumour cell line growth inhibition, 48 h

These recorded examples may help you get a feel for the data.
INSERT INTO measurements (molecule, target_or_test_system, reported_measurement) VALUES
  ('CN(C)c1ccc2cc3ccc(N(C)C)cc3nc2c1', 'MCF7 breast', '11.5 µM'),
  ('CCCCCCCCNC(C)C(O)c1ccc(SC(C)C)cc1 (configuration not stated)', 'MCF7 breast', '3.32 µM'),
  ('COc1cc(/C=C/C(=N\NC(=S)NN)c2sc(NNC(C)=O)nc2C)ccc1O', 'MCF7 breast', '> 100 µM'),
  ('N#Cc1ccc(C2Oc3ccc(Cl)cc3C=C2[N+](=O)[O-])cc1 (configuration not stated)', 'MCF7 breast', '3.14 µM'),
  ('O=S(c1ccc(Cl)cc1)c1ccccc1C1=NCCN1 (configuration not stated)', 'MCF7 breast', '> 100 µM'),
  ('Oc1ccc(Oc2cnc3cc(Cl)ccc3n2)cc1', 'MCF7 breast', '> 100 µM');

Would you kindly look at the next entry?
Prompt line: Given `COc1cc2[nH]c(=O)c3cc(C)cc4c(Cl)nc(c1OC)c2c43` , state its recorded TGI.
Response line: > 100 µM

----------
TGI listing for selected compounds.
- Test system: NCI/ADR-RES ovarian
- Method: NCI tumour cell line growth inhibition, 48 h
# unit: µM | format: bare number

INSERT INTO assay_data (compound_smiles, measurement_type, unit_text, reported_measurement) VALUES
  ('O=C(NO)c1ccc(Cn2c(=O)n(-c3ccccc3)c(=O)c3ccccc32)cc1', 'TGI', 'µM', 39.5);

Switching to the query record.
Prompt line: Please report the recorded TGI for `Fc1ccc([C@@H]2CCNC[C@H]2COc2ccc3c(c2)OCO3)cc1` .
Response line: 30

----------
- Test system: UO-31 renal
- Method: NCI tumour cell line growth inhibition, 48 h
Measurement Type: TGI

INSERT INTO results (compound, reported_measurement) VALUES
  ('COc1ccc(Cn2c3ccc([N+](=O)[O-])cc3c(=O)n2Cc2ccccn2)cc1', '> 100 µM');

Prompt line: Which TGI value belongs to O=C1CC(c2ccsc2)c2snc(-c3ccc(Cl)cc3)c2N1 (centres undefined) ?
Response line: > 100 µM

Prompt line: I'd like to know its TGI. The compound in question is `CCCCOc1ccc2c(c1)CC[C@@H]1[C@@H]2CC[C@]2(C)C(=O)N(CCCC)C(=O)C[C@@H]12`
Response line: > 100 µM

Prompt line: Endpoint output: TGI of `COc1cc(/C(=C2/O[C@@H]([C@H]3COC(C)(C)O3)[C@H]3OC(C)(C)O[C@@H]23)c2ccc3c(c2)OCO3)cc(OC)c1OC` . Value?
Response line: > 25 µM

----------
- System: XF 498 CNS
- Method: NCI tumour cell line growth inhibition, 48 h
Measurement Type: TGI

Reference set, count: 3
INSERT INTO results (compound, measurement_type, reported_measurement) VALUES
  ('Cc1ccc(C#CS(=O)(=O)C(F)(F)F)cc1', 'TGI', '> 100 µM'),
  ('Cn1cnc(SC2=C3C(=O)C=C4S[C@H]5C[C@]42c2c(c(O)c4c6c2=[N+]3CCC=6C=N4)N5)c1CC(N)C(=O)O (stereo not given in full)', 'TGI', '28.7 µM'),
  ('CN(C)CCNC(=O)c1c2ccccc2cc2ccccc12', 'TGI', '44.8 µM');

Prompt line: Reported TGI, compound `O=C(Oc1ccc2c(-c3ccccc3)c(C(=O)Nc3ccc(Cl)cc3)c(=O)oc2c1)c1ccccc1` : ____
Response line: > 100 µM

Prompt line: Requested field: TGI. Item: CN1C(=O)CCC1c1ccc2c(c1)oc(=O)n2C (stereo not given)
Response line: > 100 µM

----------
- Tested on: MOLT-4 leukemia
- Method: NCI tumour cell line growth inhibition, 48 h
We begin with a simple list: items and their reported TGI.

Take a look at these entries with their results.
INSERT INTO results (molecule, reported_measurement) VALUES
  ('O=C(CSCC(=O)N/N=C\c1ccccc1F)N/N=C\c1ccccc1F', '> 100 µM'),
  ('NC(=O)c1sc(-n2cnc3ccc(C(F)(F)F)cc32)cc1OCc1ccccc1Br', '> 25 µM'),
  ('COc1cc(/C(=C2/O[C@@H]([C@H]3COC(C)(C)O3)[C@H]3OC(C)(C)O[C@@H]23)c2ccc3c(c2)OCO3)cc(OC)c1OC', '> 25 µM'),
  ('COc1ccc(C2=C(Cl)c3cc(OC)c(OC)cc3C2)cc1OC', '> 100 µM'),
  ('COC12C=CC(CC1)C(C)(C)C2OS(C)(=O)=O (configuration not stated)', '> 100 µM'),
  ('COc1ccc(-c2nc(-c3cnccn3)n(Cc3ccccc3)n2)cc1', '> 100 µM'),
  ('O=C(CCN1CCCC1)Nc1ccc2c(NCCc3ccccc3)c3ccccc3nc2c1', '1.56 µM'),
  ('COc1ccc(N2N=NN(C(C)C)/C2=C(/Cl)c2nnnn2-c2ccc(OC)cc2)cc1', '14.8 µM'),
  ('CCC(=O)N1C(=O)C(CC)(CC)C(=O)N1C(=O)CC', '> 100 µM'),
  ('O=C(Cc1csc2nc(-c3ccc(Br)cc3)cn12)N/N=C/c1ccc(Cl)cc1Cl', '26.3 µM');

Prompt line: Look up TGI for this molecule: O=NN1C(c2ccccc2)CCCC1c1ccccc1 (configuration not stated)
Response line: > 100 µM

Prompt line: Item O=C1c2cc3c(cc2CC1Cc1ccc2c(c1)CCC2)CCC3 (configuration not stated) has what recorded TGI?
Response line: > 100 µM

Prompt line: Given the molecule `Cc1cn([C@H]2C[C@H](O)[C@@H](CO)O2)c(=O)nc1N` , what is its reported TGI?
Response line: > 100 µM

Prompt line: I'd like to know its TGI. The molecule in question is O=C1O[C@H]2C3C4CCC(C4[C@@H]2I)[C@H]13 (some centres not stated)
Response line: > 100 µM

Prompt line: // lookup TGI for CC(O)C(NC(=O)c1ccccc1)C(=O)N(Cc1ccccc1)Cc1ccccc1 (configuration not stated)
Response line: > 100 µM

Prompt line: What value of TGI has been recorded for this entry: N#Cc1ccc(C2Oc3ccc(Cl)cc3C=C2[N+](=O)[O-])cc1 (configuration not stated)
Response line: 4.24 µM

Prompt line: Param item = `N#Cc1c(N2CCCC2)nsc1Nc1ccc(F)cc1` ; retrieve measured TGI.
Response line: > 100 µM

Prompt line: What TGI value was documented for this molecule, `N#CCc1nc2cc(C(F)(F)F)ccc2s1` ?
Response line: > 100 µM

Prompt line: Quick one: TGI for `Cc1ccc2nc3c(n2c1)C(=O)C(=O)c1ccccc1-3` ?
Response line: 1.79 µM

Prompt line: Given CCOC(=O)C1=C(c2ccccc2)C12N(Cc1ccccc1)C(=O)C2(c1ccccc1)c1ccccc1 (configuration not stated) , state its recorded TGI.
Response line: > 100 µM

Prompt line: Quick one: TGI for `Clc1ccc2nc(Cl)c3ccccc3c2c1` ?
Response line: > 100 µM

Prompt line: Return reported TGI; argument: N#Cc1cc([N+](=O)[O-])ccc1NC(=O)C(=O)C(C(=O)c1ccc2ccccc2c1)C1OCc2ccccc21 (configuration not stated)
Response line: 21.8 µM

----------
- System: SN12C renal
- Method: NCI tumour cell line growth inhibition, 48 h
Measurement Type: TGI

For orientation, consider the following solved cases.
INSERT INTO assay_data (compound, reported_measurement) VALUES
  ('COc1cc(/C(=C2/O[C@@H]([C@H]3COC(C)(C)O3)[C@H]3OC(C)(C)O[C@@H]23)c2ccc3c(c2)OCO3)cc(OC)c1OC', '> 25 µM'),
  ('Cc1ccc(/C=C/C(=O)c2ccc([N+](=O)[O-])cc2)cc1', '> 100 µM'),
  ('Nc1nccc2c1ccn2-c1cccc(NC(=O)c2ccc(N3CCOCC3)c(C(F)(F)F)c2)c1', '> 50 µM'),
  ('CCn1c(=O)c2c3ccc(OC)cc3[nH]c2c2ccc(OC)cc21', '> 100 µM');

Prompt line: Which measured TGI value corresponds to O=S(c1ccc(Cl)cc1)c1ccccc1C1=NCCN1 (stereo not given) ?
Response line: > 100 µM

----------
- Test system: NCI/ADR-RES ovarian
- Method: NCI tumour cell line growth inhibition, 48 h; in the data active = GI50 below about 0.43 µM; inactive = the rest
Choose one outcome from this list and give only that: active, inactive

Prompt line: # lookup: test call for `O=C(Cc1ccc(Nc2ccnc(C(F)(F)F)c2)cc1)Nc1cc(Cl)ccc1O`
Response line: inactive

Prompt line: What did the test return for `c1ccc2cc(C[n+]3ccn(Cc4ccc5ccccc5n4)c3)ccc2c1` ?
Response line: inactive

Prompt line: Look up the recorded call for `Clc1ccc2nc(Cl)c3ccccc3c2c1` in this test.
Response line: inactive

Prompt line: Could you check what this test reported for `O=C(c1nn(-c2ccc(Cl)cc2)cc1O)n1nc(C(F)(F)F)cc1-c1ccccc1` ?
Response line: inactive

Prompt line: Given `COc1cnc2c(c1)C(=O)c1c-2n(CCCNCCN2CCOCC2)c(=O)c2cc([N+](=O)[O-])ccc12` , state the outcome it received in this test.
Response line: active

Prompt line: Which outcome was entered for the compound `Nc1nc(-c2ccc(Cl)cc2)cc(-c2ccc(Cl)cc2)c1-c1nc2ccccc2o1` in this test?
Response line: inactive
